Data provenance: patent US4068074A

- ASSAY_PROTOCOL: Residual antibacterial activity after incubation with 90% plasma (Table 4)
- Format: in vitro ADME, male Sprague-Dowley rat
- TEST_SETTINGS: 90% plasma; 90% rat plasma, 30 minute
hey, just use Satisfied if measured remaining at 0.5 h is less than 90%, otherwise Not satisfied

[
  {
    "MOLECULE": "CC(=O)OCC1=C(C(=O)O)N2C(=O)[C@@H](NC(=O)Cc3cccs3)[C@H]2SC1 [Cephalotin, reference compound]",
    "ASSIGNED_CATEGORY": "Satisfied"
  },
  {
    "MOLECULE": "O=C(O)CCc1nnc(SCC2=C(C(=O)O)N3C(=O)[C@@H](NC(=O)[C@H](NC(=O)c4cnccc4O)c4ccccc4)[C@H]3SC2)s1",
    "ASSIGNED_CATEGORY": "Not satisfied"
  },
  {
    "MOLECULE": "O=C(O)CSc1nnc(SCC2=C(C(=O)O)N3C(=O)[C@@H](NC(=O)[C@H](NC(=O)c4cnccc4O)c4ccccc4)[C@H]3SC2)s1",
    "ASSIGNED_CATEGORY": "Not satisfied"
  }
]

---

- Tested on: Proteus vulgaris 0X 19US
- ASSAY_PROTOCOL: MIC against bacteria (Table I), strain (2)
- Type: cell-based
- TEST_SETTINGS: 0X19US; (2) Proteus vulgaris 0X 19US; read-out: MIC
- From the text: Now, for illustrating the excellent pharmacological effects of the compounds of this invention, the values of MIC (γ/ml.) of the compounds against various bacteria are shown in Table 1, in which the compounds of this invention used are shown by example numbers. (2) Proteus vulgaris 0X 19US
MEASURED_ATTRIBUTE: MIC (µg/mL)

[
  {
    "COMPOUND": "Cc1nc(SCC2=C(C(=O)O)N3C(=O)[C@@H](NC(=O)[C@H](NC(=O)c4cnccc4O)c4ccccc4)[C@H]3SC2)sc1C(=O)O [Example 14]",
    "TARGET_OF_ASSAY": "Proteus vulgaris 0X 19US",
    "MEASURED_ATTRIBUTE": "MIC",
    "RECORDED_RESULT": 0.78
  },
  {
    "COMPOUND": "COc1cc(C)ncc1C(=O)N[C@@H](C(=O)N[C@@H]1C(=O)N2C(C(=O)O)=C(CSc3nnc(SCC(=O)O)s3)CS[C@H]12)c1ccccc1 [Example 37]",
    "TARGET_OF_ASSAY": "Proteus vulgaris 0X 19US",
    "MEASURED_ATTRIBUTE": "MIC",
    "RECORDED_RESULT": 25
  },
  {
    "COMPOUND": "COc1ccncc1C(=O)N[C@@H](C(=O)N[C@@H]1C(=O)N2C(C(=O)O)=C(CSc3nnc(SCC(=O)O)s3)CS[C@H]12)c1ccccc1 [Example 26]",
    "TARGET_OF_ASSAY": "Proteus vulgaris 0X 19US",
    "MEASURED_ATTRIBUTE": "MIC",
    "RECORDED_RESULT": 0.39
  }
]

---

- Tested on: Shigella sonnei II 37148
- ASSAY_PROTOCOL: MIC against bacteria (Table I), strain (12)
- Format: cell-based
- TEST_SETTINGS: II37148; (12) Shigella sonnei II 37148; read-out: MIC

[
  {
    "SMILES_STRUCTURE": "O=C(O)C1=C(CSc2nnc(C(=O)O)s2)CS[C@@H]2[C@H](NC(=O)[C@H](NC(=O)c3cnccc3O)c3ccccc3)C(=O)N12",
    "MIC (µg/mL)": 25
  },
  {
    "SMILES_STRUCTURE": "O=C(O)Cc1nnc(SCC2=C(C(=O)O)N3C(=O)[C@@H](NC(=O)[C@H](NC(=O)c4csccc4=O)c4ccc(O)cc4)[C@H]3SC2)s1",
    "MIC (µg/mL)": 3.13
  },
  {
    "SMILES_STRUCTURE": "O=C(O)CCC(=O)Nc1nnc(SCC2=C(C(=O)O)N3C(=O)[C@@H](NC(=O)[C@H](NC(=O)c4csccc4=O)c4ccccc4)[C@H]3SC2)s1",
    "MIC (µg/mL)": 25
  },
  {
    "SMILES_STRUCTURE": "O=C(O)CCCc1nnc(SCC2=C(C(=O)O)N3C(=O)[C@@H](NC(=O)[C@H](NC(=O)c4cnccc4O)c4ccccc4)[C@H]3SC2)s1",
    "MIC (µg/mL)": 6.25
  },
  {
    "SMILES_STRUCTURE": "COc1ccncc1C(=O)N[C@@H](C(=O)N[C@@H]1C(=O)N2C(C(=O)O)=C(CSc3nnc(SCC(=O)O)s3)CS[C@H]12)c1ccccc1",
    "MIC (µg/mL)": 6.25
  },
  {
    "SMILES_STRUCTURE": "O=C(O)Cn1nc(SCC2=C(C(=O)O)N3C(=O)[C@@H](NC(=O)[C@H](NC(=O)c4cnccc4O)c4ccccc4)[C@H]3SC2)ccc1=O",
    "MIC (µg/mL)": 25
  }
]

---

- System: Staphylococcus aureus 209P
- ASSAY_PROTOCOL: MIC against bacteria (Table I), strain (16)
- Format: cell-based
- TEST_SETTINGS: Staphylococcus aureus, 209P
MIC by entry:
MEASURED_ATTRIBUTE: MIC (µg/mL)

[
  {
    "MOLECULE": "Cc1nc(SCC2=C(C(=O)O)N3C(=O)[C@@H](NC(=O)[C@H](NC(=O)c4cnccc4O)c4ccccc4)[C@H]3SC2)sc1C(=O)O",
    "MEASURED_ATTRIBUTE": "MIC",
    "RECORDED_RESULT": 1.56
  },
  {
    "MOLECULE": "Cc1cc(O)c(C(=O)N[C@@H](C(=O)N[C@@H]2C(=O)N3C(C(=O)O)=C(CSc4nnc(CCCC(=O)O)s4)CS[C@H]23)c2ccccc2)cn1",
    "MEASURED_ATTRIBUTE": "MIC",
    "RECORDED_RESULT": 1.56
  },
  {
    "MOLECULE": "Cc1cc(O)c(C(=O)N[C@@H](C(=O)N[C@@H]2C(=O)N3C(C(=O)O)=C(CSc4nnc(SCC(=O)O)s4)CS[C@H]23)c2ccccc2)cn1",
    "MEASURED_ATTRIBUTE": "MIC",
    "RECORDED_RESULT": 1.56
  },
  {
    "MOLECULE": "COc1ccncc1C(=O)N[C@@H](C(=O)N[C@@H]1C(=O)N2C(C(=O)O)=C(CSc3nnc(SCC(=O)O)s3)CS[C@H]12)c1ccccc1",
    "MEASURED_ATTRIBUTE": "MIC",
    "RECORDED_RESULT": 1.56
  },
  {
    "MOLECULE": "Cc1nc(SCC2=C(C(=O)O)N3C(=O)[C@@H](NC(=O)[C@H](NC(=O)c4cnccc4O)c4ccccc4)[C@H]3SC2)sc1CC(=O)O",
    "MEASURED_ATTRIBUTE": "MIC",
    "RECORDED_RESULT": 3.13
  },
  {
    "MOLECULE": "O=C(O)Cn1nnnc1SCC1=C(C(=O)O)N2C(=O)[C@@H](NC(=O)[C@H](NC(=O)c3cnccc3O)c3ccccc3)[C@H]2SC1",
    "MEASURED_ATTRIBUTE": "MIC",
    "RECORDED_RESULT": 3.13
  },
  {
    "MOLECULE": "O=C(O)CSc1nnc(SCC2=C(C(=O)O)N3C(=O)[C@@H](NC(=O)[C@H](NC(=O)c4cnccc4O)c4ccc(O)cc4)[C@H]3SC2)s1",
    "MEASURED_ATTRIBUTE": "MIC",
    "RECORDED_RESULT": 3.13
  },
  {
    "MOLECULE": "Cc1nc(SCC(=O)O)cc(SCC2=C(C(=O)O)N3C(=O)[C@@H](NC(=O)[C@H](NC(=O)c4cnccc4O)c4ccccc4)[C@H]3SC2)n1",
    "MEASURED_ATTRIBUTE": "MIC",
    "RECORDED_RESULT": 0.19
  },
  {
    "MOLECULE": "O=C(O)CCSc1nnc(SCC2=C(C(=O)O)N3C(=O)[C@@H](NC(=O)[C@H](NC(=O)c4cnccc4O)c4ccccc4)[C@H]3SC2)s1",
    "MEASURED_ATTRIBUTE": "MIC",
    "RECORDED_RESULT": 1.56
  },
  {
    "MOLECULE": "O=C(O)Cn1nc(SCC2=C(C(=O)O)N3C(=O)[C@@H](NC(=O)[C@H](NC(=O)c4cnccc4O)c4ccccc4)[C@H]3SC2)ccc1=O",
    "MEASURED_ATTRIBUTE": "MIC",
    "RECORDED_RESULT": 1.56
  },
  {
    "MOLECULE": "CC1=C(C(=O)O)N2C(=O)[C@@H](NC(=O)[C@H](N)c3ccccc3)[C@H]2SC1 [Cephalexin, reference compound]",
    "MEASURED_ATTRIBUTE": "MIC",
    "RECORDED_RESULT": 1.56
  },
  {
    "MOLECULE": "O=C(O)Cc1nnc(SCC2=C(C(=O)O)N3C(=O)[C@@H](NC(=O)[C@H](NC(=O)c4csccc4=O)c4ccc(O)cc4)[C@H]3SC2)s1",
    "MEASURED_ATTRIBUTE": "MIC",
    "RECORDED_RESULT": 1.56
  }
]
